// data source = ChEMBL document CHEMBL1122669

System: Mus musculus
assay-comment: Reduction of serum cholesterol in CF1 male mice on day 9 following 20 mg/kg/day i.p. administration.
Assay type: functional
reported-conditions: route intraperitoneal
assay-endpoint: Serum cholesterol, percent of control (%)
Number only, in %; omit the unit.

Endpoint output: Serum cholesterol, percent of control of Oc1n[nH]c2ccccc12 . Value? 96

Endpoint output: Serum cholesterol, percent of control of CC(=O)c1cccc(Cn2[nH]c3ccccc3c2=O)c1 . Value? 86

Please give the measured Serum cholesterol, percent of control for this compound: O=c1c2ccccc2[nH]n1CCO 97

Requested field: Serum cholesterol, percent of control. Item: CCCCCn1[nH]c2ccccc2c1=O 79

Tell me the measured Serum cholesterol, percent of control of O=c1c2ccccc2[nH]n1Cc1ccccc1 , please. 83

---

Test system: Mus musculus
assay-comment: Reduction of serum cholesterol in CF1 male mice on day 9 following 20 mg/kg/day i.p. administration.
Format: functional
reported-conditions: route intraperitoneal
assay-endpoint: Serum cholesterol, percent of control (%)
State just the number; it will be interpreted in %.

So what does the record say about Serum cholesterol, percent of control for CC(=O)c1ccccc1Cn1[nH]c2ccccc2c1=O ? 98

Give its Serum cholesterol, percent of control value. Item: CC(=O)c1ccc(Cn2[nH]c3ccccc3c2=O)cc1 76

Returns the measured Serum cholesterol, percent of control for the input molecule. Input: O=C1NC(=O)c2ccccc21 [PHTHALIMIDE] 63

What does the data say about its Serum cholesterol, percent of control? Entry: CCCn1[nH]c2ccccc2c1=O 92

Which Serum cholesterol, percent of control value belongs to Cn1[nH]c2ccccc2c1=O ? 92

Quick one: Serum cholesterol, percent of control for CCCCn1[nH]c2ccc(Cl)cc2c1=O ? 76

Entry CCOC(=O)n1[nH]c(=O)c2ccccc21 has what Serum cholesterol, percent of control? 78

Quick one: Serum cholesterol, percent of control for CCCCn1[nH]c2ccccc2c1=O ? 92

What value of Serum cholesterol, percent of control has been reported for the following molecule? CCOC(=O)n1c2ccccc2c(=O)n1CCC(=O)O 88

Would you mind telling me what Serum cholesterol, percent of control value was observed for CCCCn1[nH]c2ccc(C)cc2c1=O ? 95

I have this molecule here, CCCCn1[nH]c2cc(Cl)ccc2c1=O , and I need its recorded Serum cholesterol, percent of control. 98

Consider the molecule shown here: CC(=O)CCn1[nH]c2ccccc2c1=O What is its recorded Serum cholesterol, percent of control? 78

So what does the record say about Serum cholesterol, percent of control for CCn1[nH]c2ccccc2c1=O ? 98

Please report the recorded Serum cholesterol, percent of control for O=c1c2ccccc2[nH]n1CCCO . 96

---

Test system: Mus musculus
assay-comment: Reduction of serum triglycerides in CF1 male mice on day 16 following 20 mg/kg/day i.p. administration.
Assay type: functional
reported-conditions: route intraperitoneal
assay-endpoint: Serum triglycerides, % of control

Which measured Serum triglycerides, % of control value corresponds to CCCCn1[nH]c2cc(Cl)ccc2c1=O ? 69%

Record request: Serum triglycerides, % of control value, item CCn1[nH]c2ccccc2c1=O 71%

What does the record list as Serum triglycerides, % of control for O=c1c2ccccc2[nH]n1CCCO ? 72%

Requested read-out: Serum triglycerides, % of control. Entry: Cn1[nH]c2ccccc2c1=O 72%

Recorded Serum triglycerides, % of control of CCOC(=O)n1c2ccccc2c(=O)n1CCC(=O)O , please. 70%
